# target: F508delCFTR (Homo sapiens, UniProt P13569, DEL508-508)
# Construct: expressed in transfected cells; host or cells: CFBE41o- human lung derived epithelial cells (CFBE41o-F508delCFTR-HRP), doxycycline-inducible
# Sequence (P13569 with tags, fused parts or gaps DEL508-508): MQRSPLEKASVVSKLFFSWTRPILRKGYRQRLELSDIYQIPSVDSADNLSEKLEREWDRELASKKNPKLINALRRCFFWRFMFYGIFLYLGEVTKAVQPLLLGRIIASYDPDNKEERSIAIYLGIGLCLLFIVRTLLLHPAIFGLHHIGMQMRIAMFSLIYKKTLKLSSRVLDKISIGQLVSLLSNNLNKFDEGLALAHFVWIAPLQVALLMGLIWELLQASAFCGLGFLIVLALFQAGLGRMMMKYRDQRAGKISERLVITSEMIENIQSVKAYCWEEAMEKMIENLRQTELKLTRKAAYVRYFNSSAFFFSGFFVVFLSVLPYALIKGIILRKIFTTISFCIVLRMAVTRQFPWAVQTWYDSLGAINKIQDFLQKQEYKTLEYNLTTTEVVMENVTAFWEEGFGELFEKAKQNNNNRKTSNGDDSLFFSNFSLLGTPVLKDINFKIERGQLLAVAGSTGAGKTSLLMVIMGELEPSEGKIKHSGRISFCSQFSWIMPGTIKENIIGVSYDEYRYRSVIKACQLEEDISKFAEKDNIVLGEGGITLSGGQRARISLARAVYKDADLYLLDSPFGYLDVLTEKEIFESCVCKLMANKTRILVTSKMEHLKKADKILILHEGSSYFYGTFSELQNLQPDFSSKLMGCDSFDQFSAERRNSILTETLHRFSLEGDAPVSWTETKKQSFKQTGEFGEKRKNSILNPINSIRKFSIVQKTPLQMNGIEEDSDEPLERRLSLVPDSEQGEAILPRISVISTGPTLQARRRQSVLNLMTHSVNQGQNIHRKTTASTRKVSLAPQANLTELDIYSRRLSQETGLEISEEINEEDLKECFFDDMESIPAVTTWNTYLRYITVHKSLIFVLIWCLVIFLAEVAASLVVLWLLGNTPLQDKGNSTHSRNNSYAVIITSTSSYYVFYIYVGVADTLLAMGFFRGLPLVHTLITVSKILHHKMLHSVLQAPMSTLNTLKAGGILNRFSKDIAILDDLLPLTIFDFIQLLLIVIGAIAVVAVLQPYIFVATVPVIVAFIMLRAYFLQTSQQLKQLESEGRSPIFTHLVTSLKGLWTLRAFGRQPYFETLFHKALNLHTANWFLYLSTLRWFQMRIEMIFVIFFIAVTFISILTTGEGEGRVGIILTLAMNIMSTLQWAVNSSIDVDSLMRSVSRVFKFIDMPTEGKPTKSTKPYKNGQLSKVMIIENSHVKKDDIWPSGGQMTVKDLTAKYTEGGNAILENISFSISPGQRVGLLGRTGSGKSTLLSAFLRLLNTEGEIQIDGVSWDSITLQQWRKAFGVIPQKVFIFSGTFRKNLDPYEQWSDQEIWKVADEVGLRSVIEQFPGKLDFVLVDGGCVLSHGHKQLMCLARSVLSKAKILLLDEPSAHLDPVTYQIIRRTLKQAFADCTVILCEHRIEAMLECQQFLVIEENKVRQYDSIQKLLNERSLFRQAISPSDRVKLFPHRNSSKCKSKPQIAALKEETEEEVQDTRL
# testDescription: Cell Surface Expression-Horse Radish Peroxidase (CSE-HRP) Assay;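 for Maximum % activity (without co-corrector): % of on-plate positive control chromenyl benzoic acid corrector at 2 or 3 µM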
# Assay type: cell-based
# conditionSummary: without co-corrector; maximum at any tested concentration; read-out: Maximum % activity (without co-corrector)
measuredParameter: Emax

Record `O=C(NS(=O)(=O)c1cccnc1)C1(c2ccc(Cl)cc2Cl)CC1` / F508delCFTR (Homo sapiens, UniProt P13569, DEL508-508), Emax recorded as < 50%

Record CC1(C)CC1(C(=O)NS(=O)(=O)c1ccccc1)c1ccccc1 (centres unmarked) / F508delCFTR (Homo sapiens, UniProt P13569, DEL508-508), Emax recorded as < 50%

Record `O=C(NS(=O)(=O)c1cccc(OC(F)(F)F)c1)C1(c2ccc(Cl)cc2Cl)CC1` / F508delCFTR (Homo sapiens, UniProt P13569, DEL508-508), Emax recorded as < 50%

Record `CCc1cnc(OC(C)C)c(C2(C(=O)NS(=O)(=O)c3cccc4ncccc34)CC2)c1` / F508delCFTR (Homo sapiens, UniProt P13569, DEL508-508), Emax recorded as > 150%

====

# target: F508delCFTR (Homo sapiens, UniProt P13569, DEL508-508)
# Construct: expressed in transfected cells; host or cells: CFBE41o- human lung derived epithelial cells (CFBE41o-F508delCFTR-HRP), doxycycline-inducible
# testDescription: Cell Surface Expression-Horse Radish Peroxidase (CSE-HRP) Assay
# Type: cell-based
# conditionSummary: test compound alone, without co-corrector; read-out: EC50 (without co-corrector)
pEC50: −log10 of the molar value.
measuredParameter: pEC50

Before answering, review these 4 worked examples.
>>> print(df.to_string())
                                   molecule  observedvalue
0  CC1(C)CC1(C(=O)NS(=O)(=O)c1ccccc1)c1ccccc1 (centres unmarked)         < 5.00
1  COc1cc(C2CCC2)cc(OC)c1C1(C(=O)NS(=O)(=O)c2cccc3[nH]ccc23)CC1         > 5.52
2  COc1ccc(C)cc1C1(C(=O)NS(=O)(=O)c2cccc3nc(N)ccc23)CC1         > 5.52
3  CC(C)Oc1ccc(S(=O)(=O)NC(=O)C2(c3ccc(Cl)cc3Cl)CC2)cc1         < 5.00

Short answer for `COc1c(C)cccc1C1(C(=O)NS(=O)(=O)c2cccc3ncccc23)CC1` : pEC50 was 5.00 to 5.52

====

# pEC50 per record follows
# target: F508delCFTR (Homo sapiens, UniProt P13569, DEL508-508)
# Construct: expressed in transfected cells; host or cells: CFBE41o- human lung derived epithelial cells (CFBE41o-F508delCFTR-HRP), doxycycline-inducible
# testDescription: Cell Surface Expression-Horse Radish Peroxidase (CSE-HRP) Assay;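 for EC50 (with co-corrector): co-corrector chromenyl benzoic acid corrector at 2 or 3 µM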
# Format: cell-based
# conditionSummary: with co-corrector; read-out: EC50 (with co-corrector)
pEC50: −log10 of the molar value.

Before answering, review these 3 worked examples.
                                   compound  measuredparameter  observedvalue
0  COc1ccc(C2(OC)COC2)cc1C1(C(=O)NS(=O)(=O)c2cccc3ncccc23)CC1 [Example III-128]              pEC50   5.00 to 5.52
1  CC(C)COc1cnc(C2CC2)c(C2(C(=O)NS(=O)(=O)c3cccc4ncccc34)CC2)c1 [Example GI-12]              pEC50         > 5.52
2  COc1ccc(C2CC2)cc1C1(C(=O)NS(=O)(=O)c2cccc3ncccc23)CC1 [Example I-13]              pEC50         > 5.52

Short answer for O=C(O)c1ccc(Cl)cc1S(=O)(=O)NC(=O)C1(c2ccc(Cl)cc2Cl)CC1 [Example III-68] : pEC50 was > 5.52

====

# pEC50 per record follows
# target: F508delCFTR (Homo sapiens, UniProt P13569, DEL508-508)
# Construct: expressed in transfected cells; host or cells: CFBE41o- human lung derived epithelial cells (CFBE41o-F508delCFTR-HRP), doxycycline-inducible
# testDescription: Cell Surface Expression-Horse Radish Peroxidase (CSE-HRP) Assay
# Type: cell-based
# conditionSummary: test compound alone, without co-corrector; read-out: EC50 (without co-corrector)
# Method: A cellular assay for measuring the F508delCFTR cell surface expression after correction with test compounds either without or with a co-corrector (2 μM of 3-[(2R,4R)-4-({[1-(2,2-difluoro-1,3-benzodioxol-5-yl)cyclopropyl]carbonyl}amino)-7-methoxy-3,4-dihydro-2H-chromen-2-yl]benzoic acid), was developed in human lung derived epithelial cell line (CFBE4lo−) (Veit G et al, (2012) Mol Biol Cell. 23(21): 4188-4202). […] The raw counts from the experiment were analyzed using Accelrys® Assay Explorer v3.3. […]
pEC50: −log10 of the molar value.

Before answering, review these 3 worked examples.
In [3]: df
Out[3]:
                                     smiles  observedvalue
0  O=C(NS(=O)(=O)C(F)(F)F)C1(c2ccc(Cl)cc2Cl)CC1         < 5.00
1  COc1ncc(Cl)cc1C1(C(=O)NS(=O)(=O)c2cccc3ccccc23)CC1         > 5.52
2  O=C(NS(=O)(=O)c1ccccc1)C1(c2ccc(Cl)c(Cl)c2)CC1         < 5.00

Proceeding to the next molecule to report its pEC50.
Record `COc1ncc(C2CCC2)c(C)c1C1(C(=O)NS(=O)(=O)c2cccc3c2ccn3C)CC1` / F508delCFTR (Homo sapiens, UniProt P13569, DEL508-508), pEC50 recorded as 5.00 to 5.52

====

# target: F508delCFTR (Homo sapiens, UniProt P13569, DEL508-508)
# Construct: expressed in transfected cells; host or cells: CFBE41o- human lung derived epithelial cells (CFBE41o-F508delCFTR-HRP), doxycycline-inducible
# testDescription: Cell Surface Expression-Horse Radish Peroxidase (CSE-HRP) Assay;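 for Maximum % activity (without co-corrector): % of on-plate positive control chromenyl benzoic acid corrector at 2 or 3 µM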
# Type: cell-based
# conditionSummary: without co-corrector; maximum at any tested concentration; read-out: Maximum % activity (without co-corrector)
# Emax per record follows

Before answering, review these 3 worked examples.
>>> df
                                     smiles  observedvalue
0  O=C(NS(=O)(=O)C(F)(F)F)C1(c2ccc(Cl)cc2Cl)CC1          < 50%
1  CCc1ccc(OC(F)F)c(C2(C(=O)NS(=O)(=O)c3cccc4ncccc34)CC2)c1         > 150%
2  Cc1ccc(OC(C)C)c(C2(C(=O)NS(=O)(=O)c3cccc4[nH]ncc34)CC2)c1         > 150%

Proceeding to the next compound to report its Emax.
Short answer for `COc1ncc(C(F)(F)F)cc1C1(C(=O)NS(=O)(=O)c2cccn3nccc23)CC1` : Emax was > 150%

====

# target: F508delCFTR (Homo sapiens, UniProt P13569, DEL508-508)
# Construct: expressed in transfected cells; host or cells: CFBE41o- human lung derived epithelial cells (CFBE41o-F508delCFTR-HRP), doxycycline-inducible
# testDescription: Cell Surface Expression-Horse Radish Peroxidase (CSE-HRP) Assay
# Format: cell-based
# conditionSummary: test compound without co-corrector; read-out: EC50 (without co-corrector)
pEC50: −log10 of the molar value.
# pEC50 per record follows

Record `COc1cnc(C2CC2)c(C2(C(=O)NS(=O)(=O)c3cccc4ncccc34)CC2)c1` / F508delCFTR (Homo sapiens, UniProt P13569, DEL508-508), pEC50 recorded as 5.00 to 5.52

Record `COCC1CCN(c2ncc(C3CCC3)cc2C2(C(=O)NS(=O)(=O)c3cccc4ncccc34)CC2)CC1` / F508delCFTR (Homo sapiens, UniProt P13569, DEL508-508), pEC50 recorded as > 5.52

Record `CCc1cnc(OCC2CC2)c(C2(C(=O)NS(=O)(=O)c3cccc4[nH]ccc34)CC2)c1` / F508delCFTR (Homo sapiens, UniProt P13569, DEL508-508), pEC50 recorded as > 5.52

Record `CCc1cnc(OC(C)C)c(C2(C(=O)NS(=O)(=O)c3cccc4nc(C)ccc34)CC2)c1` / F508delCFTR (Homo sapiens, UniProt P13569, DEL508-508), pEC50 recorded as > 5.52

Record `CC(C)Oc1ncc(N(C)C)cc1C1(C(=O)NS(=O)(=O)c2cccc3[nH]ccc23)CC1` / F508delCFTR (Homo sapiens, UniProt P13569, DEL508-508), pEC50 recorded as 5.00 to 5.52

Record `CCc1cnc(OCCOC)c(C2(C(=O)NS(=O)(=O)c3cccc4nc(C)ccc34)CC2)c1` / F508delCFTR (Homo sapiens, UniProt P13569, DEL508-508), pEC50 recorded as 5.00 to 5.52

Record `CCc1cnc(N2CCCC2)c(C2(C(=O)NS(=O)(=O)c3cccc4[nH]ccc34)CC2)c1` / F508delCFTR (Homo sapiens, UniProt P13569, DEL508-508), pEC50 recorded as 5.00 to 5.52

Record `CCc1cnc(N2CCC(OC(C)C)CC2)c(C2(C(=O)NS(=O)(=O)c3cccc4ncccc34)CC2)c1` / F508delCFTR (Homo sapiens, UniProt P13569, DEL508-508), pEC50 recorded as 5.00 to 5.52
